test.readout: melting point

Recorded results for 2 compounds are shown here.
compound	value.measured
CCCn1c(=O)c(C=O)c2n(c1=O)CCCS2	153 to 154 °C
COc1ccccc1SC(CC(C)C)c1c(O)cc(-c2ccccc2)oc1=O (centres undefined)	75 to 78 °C

melting point recorded for this compound, CNC1=NS(=O)N=C1CCS (centres undefined) , is 191 to 193 °C

melting point recorded for this compound, COC1OCC[C@@H]1NC(=O)[C@H](CC(C)C)NC(=O)[C@H](CC(C)C)NC(=O)c1ccc2c(c1)Nc1ccccc1O2 (some centres undefined) , is 178 to 179 °C

melting point recorded for this compound, CC(C)C[C@H](NC(=O)c1ccccc1Cl)C(=O)N[C@@H](C(C)C)[C@@H](O)c1c(-c2ccccc2)c1=O , is 99 to 104 °C

melting point recorded for this compound, Cc1cc(SCc2cc(-c3ccc(C(F)(F)F)cc3)on2)c(Cl)cc1OCC(=O)O , is 120 to 121 °C

melting point recorded for this compound, O=S(=O)(c1nc(-c2ccc(Cl)c(Cl)c2)c(-c2cccs2)[nH]1)C(F)(F)C(F)F , is 158 to 160 °C

melting point recorded for this compound, CCCC1=C(C#N)S(=O)(=O)c2ccc(C(F)(F)F)cc2N1 , is 200 °C

melting point recorded for this compound, N#Cc1c(N2CCN(C(=O)c3cccs3)CC2)c2cc(Cl)cnc2[nH]c1=O , is 158 °C

* * *

test.readout: melting point

compound	melting point
COc1ccc2c(c1)C(c1ccccc1)=Nn1c(C)cnc1C2	140 °C
CCC(CC)n1nnc2c(Nc3c(C)cc(C)cc3C)nc(C)cc21	140 to 142 °C
COc1ccc2cc(CN(C)C(=O)c3cn(C)c4ccccc34)ccc2c1Br	168 to 169 °C
COC(=O)CC[C@H](NC(=O)c1ccc(CCn2cnc3nc(NC(=O)C(C)(C)C)cc-3c2O)cc1)C(=O)OC	247 °C
COC(=O)c1ccc2c(=O)n(CC(C)C)c(CNC(=O)OC(C)(C)C)c(-c3cccc(F)c3)c2c1	206 to 208 °C

melting point recorded for this compound, COc1cc(OC)nc(NC(=O)NS(=O)(=O)c2nccn2-c2nn(C)cc2Cl)n1 , is 164 to 165 °C

melting point recorded for this compound, NC(=O)CCn1ccn(C2CCc3ccccc3C2)c1=S (centres undefined) , is 180 to 181 °C

melting point recorded for this compound, Fc1cccc(CC2(Cc3cccc(F)n3)c3cccnc3-c3ncccc32)n1 , is 221 to 225 °C

melting point recorded for this compound, CSC1C(=O)Nc2c(Nc3ccccc3)cccc21 (centres undefined) , is 174 to 176 °C

melting point recorded for this compound, COc1cccc(CC(=O)O)c1OCCCc1cn(-c2ccc(Cl)cn2)nc1C(C)(C)C , is 87 to 88 °C

* * *

test.readout: melting point

Recorded results for 5 compounds are shown here.
compound	melting point
COc1ccc(-c2nc3cc4nc[nH]c(=O)c4cc3[nH]2)cc1	> 300 °C
CN1CCN(C2=Nc3ccccc3N3CCCc4cccc2c43)CC1	129 to 132 °C
CCCCn1c(=O)[nH]c2cccc(OCC3CO3)c21 (stereo unspecified)	226 to 227 °C
CC(C)c1cccc(C(C)C)c1NC(=O)CN1CCN(CCOc2nc3ccccc3[nH]2)CC1	205 to 206 °C
CCCCCCCCCCCCCCCCCCOc1cccc(NCC(=O)O)c1	92 °C

melting point recorded for this compound, CC1CCCC(Cl)(Cl)C(=O)N1 (stereo unspecified) , is 132 to 134 °C

melting point recorded for this compound, CC(SCCS(=O)(=O)N(C)C)c1ccc2c(c1)OCO2 (stereo unspecified) , is 93 to 94.5 °C

melting point recorded for this compound, CN(C)c1c(C(N)=O)cnc2c(NC(=O)c3c(Cl)cccc3Cl)cccc12 , is 222 to 223 °C

melting point recorded for this compound, CC(C)(C)c1ccc(NC(=O)c2ccc(C3NOC(=O)N3)cc2)cc1 (stereo unspecified) , is > 300 °C

melting point recorded for this compound, CCOC(=O)/C=C/c1ccc(OCCc2nc(-c3cccc(C)c3)oc2C)cc1 , is 90 to 91 °C

melting point recorded for this compound, CCOC(=O)/C=C/c1ccc(OCc2nc(-c3ccccc3)oc2C)nc1 , is 109 to 110 °C

Reference source for all entries: a melting point compilation (Tetko et al.; mined from patent text by program, amines drawn as free bases though some values may be those of a salt)
